Give measured pIC50 for each item. Keep answers brief.
The scale used: pIC50 is minus the common logarithm of the concentration in molar units.

Req: Give CpunOBP2 (Conogethes punctiferalis) pIC50 for CCCCC/C=C\CCCCCCCCC=O [Z10-16∶Ald, (Z)-10-hexadecenal]
Resp: 5.11

Req: Please provide the recorded pIC50 for CCCCC/C=C/CCCCCCCCC=O [E10-16∶Ald, (E)-10-hexadecenal] , tested on CpunOBP2 (Conogethes punctiferalis).
Sequence (A0A0C4K8H3 23-151): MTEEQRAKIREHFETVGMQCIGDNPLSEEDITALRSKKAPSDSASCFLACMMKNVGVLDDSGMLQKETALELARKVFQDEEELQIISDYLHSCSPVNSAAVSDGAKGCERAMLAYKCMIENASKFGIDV
Resp: 5.02

Req: For CpunOBP2 (Conogethes punctiferalis), provide pIC50 of CC/C=C\C/C=C\C/C=C\CCCCCCCCCCCCC [Z3, Z6, Z9-23∶HC, (Z3, Z6, Z9)-tricosatriene] please.
Resp: 5.38
